Data credit: patent US10566550B2

Readings of solubility for the listed compounds
Experiment: Solubility of the materials in various solvents at 20° C.
Type: physicochemical
Conditions: organic solvent or mixture, thermodynamic from solid, LM1 Anisole:Xylene (2:1)

CC1(C)c2ccccc2-c2ccc(N(c3ccc4c(c3)C3(c5ccccc5-c5ccccc53)c3ccccc3-4)c3ccccc3-c3ccccc3)cc21 ... > 50 mg/mL

From here, focus on the item given below.
Give its solubility value. Item: O=C([O][Bi]([O]C(=O)c1ccc(F)c(F)c1F)[O]C(=O)c1ccc(F)c(F)c1F)c1ccc(F)c(F)c1F
< 7.5 mg/mL

====

Assay: Solubility of the materials in various solvents at 20° C.
Format: physicochemical
Settings: organic solvent or mixture, thermodynamic from solid, LM3 Xylene
experimental-readout: solubility (mg/mL)
# number only, unit mg/mL dropped from output

What does the record list as solubility for CC1(C)c2ccccc2-c2ccc(N(c3ccc4c(c3)C3(c5ccccc5-c5ccccc53)c3ccccc3-4)c3ccccc3-c3ccccc3)cc21 ?
40

====

Assay: Solubility of the materials in various solvents at 20° C.
Format: physicochemical
Conditions: organic solvent or mixture, thermodynamic from solid, LM7 Hexafluorobenzene
experimental-readout: solubility

Sample O=C([O][Bi]([O]C(=O)c1ccc(F)c(F)c1F)[O]C(=O)c1ccc(F)c(F)c1F)c1ccc(F)c(F)c1F [M1] — what was its solubility?
15 to 20 mg/mL

====

Test: Solubility of the materials in various solvents at 20° C.
Type: physicochemical
Settings: organic solvent or mixture, thermodynamic from solid, LM20 Toluene
experimental-readout: solubility (mg/mL)
A number alone suffices; assume mg/mL.

Value lookup for solubility; key = CC1(C)c2ccccc2-c2ccc(N(c3ccc4c(c3)C3(c5ccccc5-c5ccccc53)c3ccccc3-4)c3ccccc3-c3ccccc3)cc21
60

====

Test: Solubility of the materials in various solvents at 20° C.
Assay type: physicochemical
Settings: organic solvent or mixture, thermodynamic from solid, LM17 Methanol
experimental-readout: solubility

What does the record list as solubility for O=C([O][Bi]([O]C(=O)c1ccc(F)c(F)c1F)[O]C(=O)c1ccc(F)c(F)c1F)c1ccc(F)c(F)c1F [M1] ?
> 20 mg/mL

====

Assay: Solubility of the materials in various solvents at 20° C.
Format: physicochemical
Details: organic solvent or mixture, thermodynamic from solid, LM8 Toluene:Hexafluorobenzene (7:3)
Some compounds, each annotated with its measured solubility.
Only the number, expressed in mg/mL, is required.

CC1(C)c2ccccc2-c2ccc(N(c3ccc4c(c3)C3(c5ccccc5-c5ccccc53)c3ccccc3-4)c3ccccc3-c3ccccc3)cc21 ... 30

Shift focus to the following entry.
Give its solubility value. Item: O=C([O][Bi]([O]C(=O)c1ccc(F)c(F)c1F)[O]C(=O)c1ccc(F)c(F)c1F)c1ccc(F)c(F)c1F
15

====

Assay: Solubility of the materials in various solvents at 20° C.
Assay type: physicochemical
Details: organic solvent or mixture, thermodynamic from solid, LM2 Anisole
experimental-readout: solubility (mg/mL)
Reply with just the number (in mg/mL).

Item under review: CC1(C)c2ccccc2-c2ccc(N(c3ccc4c(c3)C3(c5ccccc5-c5ccccc53)c3ccccc3-4)c3ccccc3-c3ccccc3)cc21 [OS6] . Reported solubility?
100

====

Test: Solubility of the materials in various solvents at 20° C.
Type: physicochemical
Details: organic solvent or mixture, thermodynamic from solid, LM10 Fluorobenzene
experimental-readout: solubility

Dear colleague, I am looking for the recorded solubility of the following compound: O=C([O][Bi]([O]C(=O)c1ccc(F)c(F)c1F)[O]C(=O)c1ccc(F)c(F)c1F)c1ccc(F)c(F)c1F [M1]
< 7500 µg/mL

====

Assay: Solubility of the materials in various solvents at 20° C.
Format: physicochemical
Conditions: organic solvent or mixture, thermodynamic from solid, LM11 Acetonitrile
experimental-readout: solubility

# get_value(readout='solubility', item= O=C([O][Bi]([O]C(=O)c1ccc(F)c(F)c1F)[O]C(=O)c1ccc(F)c(F)c1F)c1ccc(F)c(F)c1F )
< 10000 µg/mL

====

Test: Solubility of the materials in various solvents at 20° C.
Type: physicochemical
Settings: organic solvent or mixture, thermodynamic from solid, LM13 Acetone
experimental-readout: solubility

Please report the recorded solubility for O=C([O][Bi]([O]C(=O)c1ccc(F)c(F)c1F)[O]C(=O)c1ccc(F)c(F)c1F)c1ccc(F)c(F)c1F [M1] .
> 20 mg/mL

====

Test: Solubility of the materials in various solvents at 20° C.
Assay type: physicochemical
Details: organic solvent or mixture, thermodynamic from solid, LM12 Benzonitrile
experimental-readout: solubility

# solubility lookup, item O=C([O][Bi]([O]C(=O)c1ccc(F)c(F)c1F)[O]C(=O)c1ccc(F)c(F)c1F)c1ccc(F)c(F)c1F
> 20 mg/mL

====

Assay: Solubility of the materials in various solvents at 20° C.
Assay type: physicochemical
Conditions: organic solvent or mixture, thermodynamic from solid, LM5 THF
Let's look at some compounds and their measured solubility.

O=C([O][Bi]([O]C(=O)c1ccc(F)c(F)c1F)[O]C(=O)c1ccc(F)c(F)c1F)c1ccc(F)c(F)c1F ... > 100 mg/mL

Turning now to a further record.
Look at this compound and give its reported solubility. CC1(C)c2ccccc2-c2ccc(N(c3ccc4c(c3)C3(c5ccccc5-c5ccccc53)c3ccccc3-4)c3ccccc3-c3ccccc3)cc21
> 40 mg/mL

====

Below, each of the molecules is paired with its reported solubility value.
Assay: Solubility of the materials in various solvents at 20° C.
Format: physicochemical
Details: organic solvent or mixture, thermodynamic from solid, LM18 Toluene:Methanol (8:2)
Record the value in mg/mL, omitting the unit from your answer.

CC1(C)c2ccccc2-c2ccc(N(c3ccc4c(c3)C3(c5ccccc5-c5ccccc53)c3ccccc3-4)c3ccccc3-c3ccccc3)cc21 ... 30

Next item in the queue.
Recorded solubility for O=C([O][Bi]([O]C(=O)c1ccc(F)c(F)c1F)[O]C(=O)c1ccc(F)c(F)c1F)c1ccc(F)c(F)c1F , please?
20

====

Assay: Solubility of the materials in various solvents at 20° C.
Type: physicochemical
Details: organic solvent or mixture, thermodynamic from solid, LM16 DMSO
Entries and their measured solubility follow.

CC1(C)c2ccccc2-c2ccc(N(c3ccc4c(c3)C3(c5ccccc5-c5ccccc53)c3ccccc3-4)c3ccccc3-c3ccccc3)cc21 ... 10000 µg/mL

Next item in the queue.
Dear colleague, I am looking for the recorded solubility of the following molecule: O=C([O][Bi]([O]C(=O)c1ccc(F)c(F)c1F)[O]C(=O)c1ccc(F)c(F)c1F)c1ccc(F)c(F)c1F
> 20000 µg/mL

====

Test: Solubility of the materials in various solvents at 20° C.
Format: physicochemical
Settings: organic solvent or mixture, thermodynamic from solid, LM6 Toluene:THF (9:1)
experimental-readout: solubility

O=C([O][Bi]([O]C(=O)c1ccc(F)c(F)c1F)[O]C(=O)c1ccc(F)c(F)c1F)c1ccc(F)c(F)c1F [M1] ... > 30 mg/mL

Please turn your attention to the following entry.
Find the recorded solubility belonging to CC1(C)c2ccccc2-c2ccc(N(c3ccc4c(c3)C3(c5ccccc5-c5ccccc53)c3ccccc3-4)c3ccccc3-c3ccccc3)cc21 [OS6] and report it.
> 50 mg/mL

====

Assay: Solubility of the materials in various solvents at 20° C.
Format: physicochemical
Conditions: organic solvent or mixture, thermodynamic from solid, LM4 Chlorobenzene
experimental-readout: solubility

Form field: reported solubility of O=C([O][Bi]([O]C(=O)c1ccc(F)c(F)c1F)[O]C(=O)c1ccc(F)c(F)c1F)c1ccc(F)c(F)c1F
< 7500 µg/mL
